# Assay Overview: Ratio of drug level in spleen to plasma in female Beagle dog at 400 mg/kg administered intramuscularly after 1 month
# Assay type: ADME, organism-based, Canis lupus familiaris
# Design: dose 400 mg/kg, route intramuscular
# Condition Notes: im
Reported Endpoint: Kp at 730.5 h
Number only, no unit.

Memo: Cc1cc(/C=C/C#N)cc(C)c1Nc1ccnc(Nc2ccc(C#N)cc2)n1 , reported Kp at 730.5 h: 2.6

---

# Assay Overview: Ratio of drug level in thymus to plasma in Beagle dog at 5 mg/kg, sc after 6 months
# Format: ADME, organism-based, Canis lupus familiaris
# Parameters: dose 5 mg/kg, route subcutaneous
Reported Endpoint: Kp at 4383 h
Number only, no unit.

Memo: Cc1cc(/C=C/C#N)cc(C)c1Nc1ccnc(Nc2ccc(C#N)cc2)n1 , reported Kp at 4383 h: 16

---

# Assay Overview: Drug level in female Beagle dog spleen at 400 mg/kg, sc after 3 months
# Format: ADME, organism-based, Canis lupus familiaris
# Set-up: dose 400 mg/kg, route subcutaneous
# Condition Notes: read-out: Drug uptake
Reported Endpoint: concentration at 2191.5 h (ng/g)
Number in ng/g, nothing else.

Memo: Cc1cc(/C=C/C#N)cc(C)c1Nc1ccnc(Nc2ccc(C#N)cc2)n1 , reported concentration at 2191.5 h: 67.5

---

# Assay Overview: Ratio of drug level in lymph node iliac to plasma in Beagle dog at 5 mg/kg, sc after 6 months
# Type: ADME, organism-based, Canis lupus familiaris
# Design: dose 5 mg/kg, route subcutaneous
Reported Endpoint: Kp at 4383 h
Number only, no unit.

Memo: Cc1cc(/C=C/C#N)cc(C)c1Nc1ccnc(Nc2ccc(C#N)cc2)n1 , reported Kp at 4383 h: 7.7

---

# Assay Overview: Ratio of drug level in thymus to plasma in female Beagle dog at 200 mg/kg, sc after 3 months
# Format: ADME, organism-based, Canis lupus familiaris
# Set-up: dose 200 mg/kg, route subcutaneous
Reported Endpoint: Kp at 2191.5 h
Number only, no unit.

Memo: Cc1cc(/C=C/C#N)cc(C)c1Nc1ccnc(Nc2ccc(C#N)cc2)n1 , reported Kp at 2191.5 h: 4

---

# Assay Overview: AUC (0 to last) in male dog at 200 mg, sc after 85 days
# Condition Notes: plasma
Reported Endpoint: AUC(0-t) at 2040 h (ng·h/mL)
Number in ng·h/mL, nothing else.

Memo: Cc1cc(/C=C/C#N)cc(C)c1Nc1ccnc(Nc2ccc(C#N)cc2)n1 , reported AUC(0-t) at 2040 h: 97800

---

# Assay Overview: Plasma concentration in male Beagle dog at 400 mg/kg administered intramuscularly after 3 months
# Assay type: ADME, organism-based, Canis lupus familiaris
# Set-up: dose 400 mg/kg, route intramuscular
# Condition Notes: im
Reported Endpoint: concentration at 2191.5 h

Memo: Cc1cc(/C=C/C#N)cc(C)c1Nc1ccnc(Nc2ccc(C#N)cc2)n1 , reported concentration at 2191.5 h: 22.1 ng/mL

---

# Assay Overview: Drug level in Beagle dog muscle at injected site at 5 mg/kg administered intramuscularly after 6 months
# Assay type: ADME, organism-based, Canis lupus familiaris, Muscle tissue
# Parameters: dose 5 mg/kg, route intramuscular
# Condition Notes: im, read-out: Drug uptake
Reported Endpoint: concentration at 4383 h
Answer with the value and then the unit.

Memo: Cc1cc(/C=C/C#N)cc(C)c1Nc1ccnc(Nc2ccc(C#N)cc2)n1 [RILPIVIRINE] , reported concentration at 4383 h: 11500 ng/g
